Where do these numbers come from? They come from the RNAGym collection of RNA variant scans (doi:10.1126/science.aae0568).

Kindly supply the reported yeast fitness values for the records listed here.
B1: tRNA (parent)
chain: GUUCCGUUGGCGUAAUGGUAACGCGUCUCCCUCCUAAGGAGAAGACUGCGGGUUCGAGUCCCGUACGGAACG

# Variants of: B1
# ASSAY: yeast fitness relative to wild type (ratio to wild type); higher = fitter; tRNA-Arg(CCU), competitive growth, 37 C, YPD
Variants at the floor of the assay were thinned out.

stdin: Using the record for A15G A37C G50C , report its yeast fitness.
stdout: 0.601

stdin: Using the record for G10C C46U , report its yeast fitness.
stdout: 0.611

stdin: Using the record for U7C C33U U53C , report its yeast fitness.
stdout: 0.599

stdin: Using the record for U35C C60G , report its yeast fitness.
stdout: 0.602
